Attribution: PubChem BioAssay AID248

System: L1210 leukemia ip in BDF1 mice, survival T/C
Experiment: NCI In Vivo Anticancer Drug Screen. Data for tumor model L1210 Leukemia (intraperitoneal) in B6D2F1 (BDF1) mice
Settings: endpoint: mean survival time; dose: 200.0 mg/kg/injection; schedule: Q04DX003 (ip); vehicle: Klucel (hydroxypropylcellulose) (HPC); higher = longer survival
Toxic doses and inconclusive results are not listed.
measured_endpoint: T/C

Look over these answered cases.
CC(C)(C)c1cc(CO)cc(C(C)(C)C)c1O | 92 % of control
Cn1c(=O)c2ccccc2n(C)c1=O | 102 % of control
CCOC(=O)c1c(N)sc(C)c1C | 94 % of control
O=C(CCCN1CCC(n2c(=O)[nH]c3ccccc32)CC1)c1ccc(F)cc1 | 110 % of control
Cc1ccc([N+](=O)[O-])c(O)c1[N+](=O)[O-] | 89 % of control

query: Enter reported T/C observed with L1210 leukemia ip in BDF1 mice, survival T/C for `Cc1cc(=O)n2c3c(c4c(cc13)c(CBr)cc(=O)n4C)OC2`
result: 93 % of control

query: Here is the next compound: `CC(C)=CN1CC2CCCC(CC2)C1`
result: 101 % of control

query: Here is the next compound: `Oc1nc(/N=C2/N=c3ccc(Cl)cc3=N2)[nH]c1O`
result: 106 % of control

query: Here is the next compound: CC(=O)OC1OC(C[Se][As](C)C)C(OC(C)=O)C(OC(C)=O)C1OC(C)=O (stereo not given)
result: 98 % of control

query: Here is the next compound: Nc1ccccc1SC1CC(=O)N(c2ccc(Br)cc2Cl)C1=O (stereo not given)
result: 93 % of control
